Every entry's value here was drawn from patent US20250263408A1.

- Test System: Ba/F3-Syk cells (Homo sapiens, UniProt P43405)
- Construct: fused on or other part: Possible but unprinted fusion partner: TEL (ETV6), the usual partner for Ba/F3 lines transformed by Syk; Nothing on a partner is printed
- Test Summary: Ba/F3 Proliferation Assay, Ba/F3-Syk cells (Resazurin)
- Assay Setup: 48-hour incubation
Readout Type: EC50 (nM)

(A) Cn1ccc(-c2cc(OC[C@@H]3CNCC4(CC4)O3)c3cccnc3c2)c1
(B) COCCn1ccc(-c2cc3ncccc3c(O[C@H](C)[C@@H]3CNCCO3)n2)c1
(C) FC(F)c1cc(-c2cc(OC[C@@H]3CNCCO3)c3cccnc3c2)cs1
In: Rank the listed compounds, smallest EC50 first and largest last. # list labels per requested ordering
Out: B, A, C
